# MEASURED TARGET: 5-hydroxytryptamine receptor 1D (Homo sapiens)
# Sequence (P28221 whole entry): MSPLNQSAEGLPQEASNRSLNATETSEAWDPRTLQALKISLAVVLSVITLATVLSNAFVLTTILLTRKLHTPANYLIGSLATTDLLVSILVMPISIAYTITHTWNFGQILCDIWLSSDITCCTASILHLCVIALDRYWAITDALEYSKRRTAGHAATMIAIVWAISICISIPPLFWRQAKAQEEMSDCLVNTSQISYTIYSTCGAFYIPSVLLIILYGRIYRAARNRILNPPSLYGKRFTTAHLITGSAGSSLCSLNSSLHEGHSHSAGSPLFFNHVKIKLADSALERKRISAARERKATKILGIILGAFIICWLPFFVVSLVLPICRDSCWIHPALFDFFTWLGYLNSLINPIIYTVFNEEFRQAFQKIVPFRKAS
# TEST PROTOCOL: Measurement of agonist induced [35S]GTP-gamma-S, binding in CHO cells stably transfected with 5-hydroxytryptamine 1D receptor
The following molecules are listed with their measured EC50 values.

MOLECULE	EC50
CN1[C@@H](Cc2c[nH]c3ccc(-n4ccnc4)cc23)C[C@@H]2CN(Cc3ccccc3)C[C@@H]21 (racemic)	1.2 nM
CN1[C@@H](Cc2c[nH]c3ccc(-n4cnnc4)cc23)C[C@@H]2CN(Cc3ccccc3)C[C@@H]21 (racemic)	0.5 nM
CN1[C@@H](Cc2c[nH]c3ccc(-n4cnnc4)cc23)C[C@@H]2CN(Cc3ccc(F)cc3)C[C@@H]21 (racemic)	2.9 nM
CN1[C@@H](Cc2c[nH]c3ccc(-n4cnnc4)cc23)C[C@@H]2CN(CCc3cccc(F)c3)C[C@@H]21 (racemic)	1.9 nM

Reference for the values: ChEMBL document CHEMBL1132098
